Cited source: patent US20240067651A1

We begin with a simple list: items and their reported SIF.
test: Stability in Simulated Intestinal Fluid (SIF); format: in vitro ADME; set-up: key: % parent compound remaining relative to 0-minute sample; settings: % remaining at 1 h; SIF with pancreatin pH 6.8, 2 μg/mL, 37° C.
Field format: number, assumed %, no unit text.

Reference set, count: 7
{"COMPOUND": "CC(C)OCCn1c(SC(C)OC(=O)N(C)c2ncccc2COC(=O)CN(C)C(=O)OC(C)(C)C)nc(=O)c2[nH]ccc21 (stereo not drawn) [Example 212]", "SIF, %": 97}
{"COMPOUND": "COCCOCCN(C)C(=O)OCSc1nc(=O)c2c(ccn2COC(=O)N(C)CCOCCOC)n1CCOC(C)C [Example 89]", "SIF, %": 65}
{"COMPOUND": "CC(C)OCCn1c(=S)[nH]c(=O)c2c1ccn2S(C)(=O)=O [Example 76]", "SIF, %": 91}
{"COMPOUND": "Cc1ccccc1S(=O)(=O)n1ccc2c1c(=O)[nH]c(=S)n2CCOC(C)C [Example 80]", "SIF, %": 87}
{"COMPOUND": "CC(C)OCCn1c(=S)[nH]c(=O)c2c1ccn2COC(=O)[C@@H]1CCC(=O)N1C(=O)OCc1ccccc1 [Example 4]", "SIF, %": 94}
{"COMPOUND": "CC(C)OCCn1c(=S)[nH]c(=O)c2c1ccn2COC(N)=O [Example 181]", "SIF, %": 97}
{"COMPOUND": "Cc1ccc(S(=O)(=O)n2ccc3c2c(=O)[nH]c(=S)n3CCOC(C)C)cc1C [Example 75]", "SIF, %": 91}

With those in mind, consider the next compound.
# query: SIF of entry CC(C)OCCn1c(=S)[nH]c(=O)c2c1ccn2COP(=O)(O)O [Example 83]
100
